System: PXR:RXRa (NR concentration 270 nM, RXRa partner concentration 90 nM)
Experiment: PBM binding z-score (relative to random genomic background probes); higher = stronger binding; sequences stand for … in GC…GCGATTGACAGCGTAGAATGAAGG
Output Yes for PBM binding z-score not less than 1; output No otherwise.

Some entries whose results are on file:
Query: PBM binding z-score >= 1 for TGTCAAAGTTCAAGGGTAACGTAAGTATCCACAC ?
Reply: Yes

Query: # check: PBM binding z-score of CCTTACGGGTAAAGGTTATAGCACGGGTGGTACG is greater than or equal to 1
Reply: Yes

Query: Entry TGTCACAGTTCAAAGGTAACGTAAGTATCCACAC : is its PBM binding z-score no less than 1?
Reply: Yes

Query: hey, is PBM binding z-score for this one >= 1? TGTCAAAGTTAAAAGGTAACGTAAGTATCCACAC
Reply: No

Query: Is it the case that ACTATTAGTTGAGATGAGGGCAACCGATAGGTTG has PBM binding z-score reaching or exceeding 1?
Reply: Yes

***
Query: Check the entry TAGCCTAGGTCATTGGGCCAGTATGGTACGCATC : does PBM binding z-score equal or exceed 1?
Reply: Yes

Query: Reported PBM binding z-score reaches at least 1 for CATACAGGGTCAGCTAGGCCAGAGCAGGGACGGC ?
Reply: Yes

Query: Tell me whether PBM binding z-score is at least 1 here: TTACCAAGGTGCAAGGTCGTTGATGCACGCCTTG
Reply: Yes

Query: Hi team, for ATATCTAGGTAACCAAGTTCAGTGAATGCCGAAC , is the recorded PBM binding z-score at or above 1?
Reply: Yes

Query: Reported PBM binding z-score at or above 1? TCTATTAGTTGTAGGGCAACCGACGAGTCCGTTT
Reply: No

Query: Form field: PBM binding z-score at least 1? Entry: CGTCAAAGTTCAATTAAGGTAACGTAAAGCACGC
Reply: Yes

Query: Tell me whether PBM binding z-score is at least 1 here: ACATGTAGGTTATCGGGTCATTCAGTTTGCGCAT
Reply: Yes

---

Test system: PPARa:RXRa (NR concentration 270 nM, RXRa partner concentration 90 nM)
Assay: PBM binding z-score (relative to random genomic background probes); higher = stronger binding; sequences stand for … in GC…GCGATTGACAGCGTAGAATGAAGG
Each item that follows carries a reported PBM binding z-score.
Give only the figure.

Query: Value lookup for PBM binding z-score; key = AGAACGAGGGCACGCTGGGTTGATAGCAGAGTAG
Reply: 2.11

Query: // lookup PBM binding z-score for GTTAGCAGGCCATTTGGGTCACTCAATGACGGGC
Reply: 1.36

Query: // lookup PBM binding z-score for CGAACTAGGTAATCCAGGACAGTGAATACATTGA
Reply: 1.23

Query: Any idea what its PBM binding z-score is? The sequence is ATATGTAGGTTAGCAGGGGTCATTCAGACTAGGC
Reply: 5.56

Query: Consider the sequence TCTTGTAGATCAAAGGTTCAGAAAGCCGAAGCCT and give its measured PBM binding z-score.
Reply: 2.17

// next entry
Query: Fill in the blank: the reported PBM binding z-score of CCTACTGGCCCAAAAAGGTCATTGATGCCGATAA is ____.
Reply: 4.74

---

Test system: PPARa:RXRa (NR concentration 270 nM, RXRa partner concentration 90 nM)
Test: PBM binding z-score (relative to random genomic background probes); higher = stronger binding; sequences stand for … in GC…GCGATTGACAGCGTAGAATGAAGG
result.type: PBM binding z-score
Keep it simple and answer with nothing but the number.

Example results:
Query: Field request: PBM binding z-score | item: CGTCCAAGGTCATAGGAGGTAAGTGAAGACAGAT
Reply: 5.49

Query: Recorded PBM binding z-score of AATACAGGGTCATCGGAGGCCAGAGTACGCACAG , please.
Reply: 6.1

Query: Record request: PBM binding z-score value, item AATAAAGGGTCACTAGGCCAGAGTAGGTACGAAT
Reply: 6.36

Query: Given the entry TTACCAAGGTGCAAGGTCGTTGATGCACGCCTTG , report its measured PBM binding z-score.
Reply: 2.06

Now, please, on to the next sequence.
Query: Look up PBM binding z-score: CGTCCAAGGCCAAGGTCAGTGAAAGAGACTCGAA
Reply: 2.04

---

Form field: PBM binding z-score (one value per entry).
System: PXR homodimer (NR concentration 270 nM)
Experiment: PBM binding z-score (relative to random genomic background probes); higher = stronger binding; sequences stand for … in GC…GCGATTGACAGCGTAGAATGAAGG
Give the value as a plain number.

Answered examples (2):
Query: I have this sequence here, AGATGTAGGTTATCGGGTCATTCAGTTTGCGCAT , and I need its recorded PBM binding z-score.
Reply: 7.55

Query: # get_value(readout='PBM binding z-score', item= GCGACTGGGGCATCAGCAGGTTACCGTAACTTAA )
Reply: -0.613

Further cases:
Query: GET /values?readout=PBM binding z-score&item= CAAACTATGTCACAGAGGTCAAAGTCCGTGCGTA
Reply: 3.31

Query: Requested read-out: PBM binding z-score. Entry: ACTAGCAGGCCAAGTGTCACTCAAGATTAGTCCG
Reply: -0.525

Query: For the sequence CAGCCTAGGTCATGGCCAGTATAGGAGGAACGTT , what PBM binding z-score is on record?
Reply: -0.702

Query: Recorded PBM binding z-score for CCAGACAGGTGAGATGGTAACTCAGCCTCGATTA , please?
Reply: 0.189

Query: So what does the record say about PBM binding z-score for TCATATAGGTAAAGGTGATAGTCGAACGATATGA ?
Reply: 0.262

Query: // returns reported PBM binding z-score for input CCTAGTTGGTCAAGGCCACACACGCTATAGGTAC
Reply: 1.6

Query: Reported PBM binding z-score for CGTCCAGGGTCAAAGGTCAGTGAAGAGATGACGG : what is it?
Reply: 0.868

Query: Suppose we examine the sequence GCTAGTTGGTCGGTAAAAGGTCACACACCGGTCG ; what PBM binding z-score value has been reported?
Reply: 1.24

Query: What value of PBM binding z-score has been recorded for this entry: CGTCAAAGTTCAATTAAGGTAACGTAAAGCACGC
Reply: 3.98

Query: Consider the sequence TCATATAAGTAAATGCTAGGTGAAAGTCCGATCT and give its measured PBM binding z-score.
Reply: 0.422

---

System: RXRa DBDmut IVT, anti-RXR (DBD mutation: RXRa K156A/R161A, NR concentration 90 nM)
Assay: PBM binding z-score (relative to random genomic background probes); higher = stronger binding; sequences stand for … in GC…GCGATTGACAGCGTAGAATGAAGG
Below is a list of entries, each paired with its recorded PBM binding z-score value.
Answer with a number only.

Query: What reported PBM binding z-score corresponds to GATACAGGGTCAGCTAGTGGCCAGAGTATGGAAA on RXRa DBDmut IVT, anti-RXR (DBD mutation: RXRa K156A/R161A, NR concentration 90 nM)?
Reply: 1.25

Next:
Query: Form: Entry = AGAATGAGGTTATTAAGATCAGGCAATTGCGGTC | System = RXRa DBDmut IVT, anti-RXR (DBD mutation: RXRa K156A/R161A, NR concentration 90 nM) | PBM binding z-score = ____
Reply: 1.89

Query: Entry TCTAGTTGGTCACGGAGCTCACACACGACGGGTA , system RXRa DBDmut IVT, anti-RXR (DBD mutation: RXRa K156A/R161A, NR concentration 90 nM): what PBM binding z-score was measured?
Reply: 0.372

Query: Please state recorded PBM binding z-score (tested on RXRa DBDmut IVT, anti-RXR (DBD mutation: RXRa K156A/R161A, NR concentration 90 nM)) of CCTCGGAGGACAATAGGAGGTCAGAGCTGCCAGA
Reply: -0.00493

---

Test system: RARg homodimer (NR concentration 270 nM)
Test: PBM binding z-score (relative to random genomic background probes); higher = stronger binding; sequences stand for … in GC…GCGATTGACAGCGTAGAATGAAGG
result.type: PBM binding z-score
Answer as a number with no unit attached.

Query: # lookup: PBM binding z-score of TCGAGTAGGTTACCAATGTGGCATTCAGCTTTCT
Reply: 0.256

Query: Please report the recorded PBM binding z-score for ACTAGTTGGTCAACTGAGGTCACACACAATTCGG .
Reply: 4.46

Query: What measured PBM binding z-score goes with GGAACGAGGGCAAAGTTGAGAGCATCTGTCGACG ?
Reply: 1.87

Query: Using the record for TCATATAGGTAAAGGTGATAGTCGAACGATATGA , report its PBM binding z-score.
Reply: 0.944

Query: Form field: reported PBM binding z-score of TCTGCTAGGTCAACGAAGGTCAGCTAATCTGCTA
Reply: 6.42

Continuing:
Query: Would you kindly share the measured PBM binding z-score for CCTCGGAGAACAACAGGAGGTCAGAGCTGCCAGA ?
Reply: 1.83
